Exercise: for every item that follows, state its recorded protein stability index.
B1: DYRK1B (parent)
chain: RFQDLVLRMLEYEPAARISPLGAL

# Variants of: B1
# ASSAY_DETAILS: protein stability index of a GFP-peptide fusion (GPS, HEK-293T) (PSI 1-6); higher = more stable;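 further: lentivirally expressed fusions sorted by FACS into six bins by GFP to DsRed ratio, PSI derived from sequencing read proportions per bin multiplied by bin number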
# TEST_PARAMETERS: c terminus: a fixed tail appended
Write the number on its own, no unit after it.

Form field: reported protein stability index of RFYDLVLRMLEYEPAARISPLGAL
3.44

Form field: reported protein stability index of RFQDLVLRKLEYEPAARISPLGAL
1.53

Form field: reported protein stability index of RFQDLVLRMLEYEPAARISPLGFL
1.59

Form field: reported protein stability index of RFQDLVLRMLEYEPAARISPLGYL
2.71

Form field: reported protein stability index of RFQDLVLRMLEYEPAARISPRGAL
1.77

Form field: reported protein stability index of RFQHLVLRMLEYEPAARISPLGAL
2.78

Form field: reported protein stability index of RFQDLVLRMLEYEPAARISCLGAL
3.75

Form field: reported protein stability index of RFQDLVLRMLEYEPQARISPLGAL
2.04

Form field: reported protein stability index of RFQDLVLRMLEYEPAAYISPLGAL
3.04

Form field: reported protein stability index of RFQDLVLRMLEDEPAARISPLGAL
1.99

Form field: reported protein stability index of RFQDLVLRMLEYEPAARISPLGAE
2.36

Form field: reported protein stability index of RFQDLVLRMLEYEPAARISPLGAN
1.82

Form field: reported protein stability index of RFQDLVLRMLVYEPAARISPLGAL
3.51

Form field: reported protein stability index of RFQDLVLRMLEYEPAARISELGAL
2.84

Form field: reported protein stability index of RVQDLVLRMLEYEPAARISPLGAL
3.5

Form field: reported protein stability index of RFQDLVLRMLEYEPAARSSPLGAL
2.1

Form field: reported protein stability index of RFQDLVLRMHEYEPAARISPLGAL
1.17

Form field: reported protein stability index of RFQDLVLPMLEYEPAARISPLGAL
2.23

Form field: reported protein stability index of RFQDLVLRMLEYEPWARISPLGAL
5.07

Form field: reported protein stability index of RFQDLVLCMLEYEPAARISPLGAL
2.22

Form field: reported protein stability index of RFQDLVLRMLEYEPAARISPLGKL
1.29

Form field: reported protein stability index of RFQDHVLRMLEYEPAARISPLGAL
1.36

Form field: reported protein stability index of RFQDLVLRMLEYEPAFRISPLGAL
1.02

Form field: reported protein stability index of HFQDLVLRMLEYEPAARISPLGAL
2.31

Form field: reported protein stability index of RPQDLVLRMLEYEPAARISPLGAL
1.76

Form field: reported protein stability index of RFQDLNLRMLEYEPAARISPLGAL
2.78

Form field: reported protein stability index of RFQDLVLRMLEYEPAARISPLTAL
3.41

Form field: reported protein stability index of RFQDLVLEMLEYEPAARISPLGAL
2.06

Form field: reported protein stability index of RFQDLVGRMLEYEPAARISPLGAL
1.18

Form field: reported protein stability index of RFQDLVLRMLEYEPAARISPFGAL
1.36

Form field: reported protein stability index of RFRDLVLRMLEYEPAARISPLGAL
1.19

Form field: reported protein stability index of RFQDLVLRMLEEEPAARISPLGAL
1.05

Form field: reported protein stability index of RFQDLVFRMLEYEPAARISPLGAL
2.9

Form field: reported protein stability index of KFQDLVLRMLEYEPAARISPLGAL
2.19

Form field: reported protein stability index of DFQDLVLRMLEYEPAARISPLGAL
1.54

Form field: reported protein stability index of RFQDLVLRMLEYTPAARISPLGAL
4.09

Form field: reported protein stability index of WFQDLVLRMLEYEPAARISPLGAL
3

Form field: reported protein stability index of RFQDLVLRMLEVEPAARISPLGAL
3.06

Form field: reported protein stability index of RFQDLVLRNLEYEPAARISPLGAL
2.33

Form field: reported protein stability index of RFQKLVLRMLEYEPAARISPLGAL
2.07

Form field: reported protein stability index of YFQDLVLRMLEYEPAARISPLGAL
2.47

Form field: reported protein stability index of RFQDLVLRMLEYEPAARISPLGAH
2.36

Form field: reported protein stability index of GFQDLVLRMLEYEPAARISPLGAL
1.58

Form field: reported protein stability index of RFQDAVLRMLEYEPAARISPLGAL
2.01

Form field: reported protein stability index of RFQDLVLRMLEYEEAARISPLGAL
2.21

Form field: reported protein stability index of SFQDLVLRMLEYEPAARISPLGAL
4.75
